- Test system: Mtb 331/88 (i.e., H37Rv)
- MEASUREMENT DESCRIPTION: MIC, micro method in Šula's semisynthetic medium, drug-susceptible Mtb
- Type: cell-based, Mycobacterium tuberculosis
- CONDITION SUMMARY: Mycobacterium tuberculosis, H37RV, 504 h; 21 days
// classify: if (MIC < 4 µM) MET else NOT MET

>>> label_value("CCCCCCCCCNc1nnc(-c2cc([N+](=O)[O-])cc([N+](=O)[O-])c2)o1 [Compound 5i]")
"MET"
>>> label_value("COc1ccc(CNc2nnc(-c3cc([N+](=O)[O-])cc([N+](=O)[O-])c3)o2)cc1 [Compound 7b]")
"MET"
>>> label_value("CCCCCCCCCCNC(=O)NNC(=O)c1cc([N+](=O)[O-])cc([N+](=O)[O-])c1 [Compound 4j]")
"MET"
>>> label_value("O=[N+]([O-])c1cc(-c2nnc(NCc3ccccc3)o2)cc([N+](=O)[O-])c1 [Compound 7a]")
"MET"
>>> label_value("CCCCCCCCNc1nnc(-c2cc([N+](=O)[O-])cc([N+](=O)[O-])c2)o1 [Compound 5h]")
"MET"
>>> label_value("CCCCCCCCCCCCCCNC(=O)NNC(=O)c1cc([N+](=O)[O-])cc([N+](=O)[O-])c1 [Compound 4n]")
"NOT MET"
>>> label_value("CCCCCCCCCCCCCCCCNC(=O)NNC(=O)c1cc([N+](=O)[O-])cc([N+](=O)[O-])c1 [Compound 4p]")
"NOT MET"
>>> label_value("CCCCCCCCCCCCSc1nnc(-c2cc([N+](=O)[O-])cc([N+](=O)[O-])c2)o1 [Compound 10]")
"NOT MET"
>>> label_value("CCCCCCCCCCCCNc1nnc(-c2cc([N+](=O)[O-])cc([N+](=O)[O-])c2)o1 [Compound 5l]")
"MET"
>>> label_value("CCCCCCCNc1nnc(-c2cc([N+](=O)[O-])cc([N+](=O)[O-])c2)o1 [Compound 5g]")
"MET"
>>> label_value("CCCCCCCCCCCCCCCCCNC(=O)NNC(=O)c1cc([N+](=O)[O-])cc([N+](=O)[O-])c1 [Compound 4q]")
"NOT MET"
>>> label_value("O=[N+]([O-])c1cc(-c2nnc(NCc3ccc(Cl)cc3)o2)cc([N+](=O)[O-])c1 [Compound 7c]")
"MET"
>>> label_value("CCCCCCNC(=O)NNC(=O)c1cc([N+](=O)[O-])cc([N+](=O)[O-])c1 [Compound 4f]")
"MET"
>>> label_value("CCCCCCCCCCCCCCNc1nnc(-c2cc([N+](=O)[O-])cc([N+](=O)[O-])c2)o1 [Compound 5n]")
"MET"
